Recorded values, source BindingDB's records for doi:10.1021/jm070453f.

STUDY_SYSTEM: UniProtKB P55055
Sequence (P55055 whole entry): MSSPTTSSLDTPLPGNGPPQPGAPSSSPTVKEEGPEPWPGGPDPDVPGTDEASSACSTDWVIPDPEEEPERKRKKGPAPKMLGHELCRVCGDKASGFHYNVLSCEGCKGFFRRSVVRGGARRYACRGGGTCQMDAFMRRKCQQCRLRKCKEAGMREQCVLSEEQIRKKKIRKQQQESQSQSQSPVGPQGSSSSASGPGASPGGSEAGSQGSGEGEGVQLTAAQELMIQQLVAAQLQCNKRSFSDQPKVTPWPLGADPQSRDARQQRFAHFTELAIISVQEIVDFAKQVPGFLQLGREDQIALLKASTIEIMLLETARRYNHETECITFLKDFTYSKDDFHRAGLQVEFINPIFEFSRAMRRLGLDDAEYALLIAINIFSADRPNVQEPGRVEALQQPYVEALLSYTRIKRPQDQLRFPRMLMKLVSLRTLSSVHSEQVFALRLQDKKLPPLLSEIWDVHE
ASSAY_METHOD_TEXT: Fluorescence-Resonance Energy Transfer Assay
EXPERIMENTAL_PARAMETERS: pH 7.2; 37 °C
Reported EC50 values follow for various compounds
PROPERTY_MEASURED: EC50 (nM)

In [3]: df
Out[3]:
                                   compound  property_measured  measured
0  COc1ncccc1C1SC(c2ccc(F)cc2)=NN1C(=O)c1c(F)cc(F)cc1F (configuration not stated)               EC50       210
1  COc1cccc(C2SC(c3ccc(Cl)cc3)=NN2C(=O)c2c(F)cc(F)cc2F)c1OC (racemic)               EC50       300

====

STUDY_SYSTEM: UniProt:Q13133
Sequence (Q13133 whole entry): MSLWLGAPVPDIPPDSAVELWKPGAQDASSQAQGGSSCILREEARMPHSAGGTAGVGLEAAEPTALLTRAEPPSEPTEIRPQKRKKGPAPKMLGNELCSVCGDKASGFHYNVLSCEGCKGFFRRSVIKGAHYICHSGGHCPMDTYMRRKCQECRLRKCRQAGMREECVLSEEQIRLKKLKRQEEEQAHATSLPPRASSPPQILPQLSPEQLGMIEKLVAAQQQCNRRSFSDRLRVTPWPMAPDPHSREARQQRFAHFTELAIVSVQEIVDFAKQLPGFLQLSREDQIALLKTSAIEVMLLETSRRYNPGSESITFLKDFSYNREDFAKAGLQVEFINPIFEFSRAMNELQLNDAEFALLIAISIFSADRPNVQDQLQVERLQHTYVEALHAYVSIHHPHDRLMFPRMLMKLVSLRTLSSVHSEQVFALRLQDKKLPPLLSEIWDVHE
ASSAY_METHOD_TEXT: Fluorescence-Resonance Energy Transfer Assay
EXPERIMENTAL_PARAMETERS: pH 7.2; 37 °C
PROPERTY_MEASURED: EC50

                                   compound    study_system  property_measured  measured
0  COc1ncccc1C1SC(c2ccc(F)cc2)=NN1C(=O)c1c(F)cc(F)cc1F (stereo unspecified)  UniProt:Q13133               EC50    400 nM
